tested on: SK-MES-1; test: relative viability (nuclei count vs DMSO), 5 days (fraction); higher = more cells survive; conditions: first compound 0.6325 µM
# relative viability per entry
Could you keep your reply to the number by itself?

Item: COCC1(CO)C(=O)C2CCN1CC2 (stereo unspecified) [PRIMA-1MET] + Cc1cc(Nc2cc(N3CCN(C)CC3)nc(Sc3ccc(NC(=O)C4CC4)cc3)n2)n[nH]1 [Tozasertib] (partner 0.1 µM) | relative viability: 0.888

Continuing:
The molecule listed as COCC1(CO)C(=O)C2CCN1CC2 (stereo unspecified) [PRIMA-1MET] + Cc1nc(NC(=O)N2CCC[C@H]2C(N)=O)sc1-c1ccnc(C(C)(C)C(F)(F)F)c1 [Alpelisib] (partner 2 µM) has a reported relative viability of 1.02

According to the records, this molecule COCC1(CO)C(=O)C2CCN1CC2 (stereo unspecified) [PRIMA-1MET] + Nc1nc2[nH]cc(CCc3ccc(C(=O)N[C@@H](CCC(=O)O)C(=O)O)cc3)c2c(=O)[nH]1 [Pemetrexed] (partner 0.2 µM) displays relative viability of 0.896

Lab note: measured relative viability of COCC1(CO)C(=O)C2CCN1CC2 (stereo unspecified) [PRIMA-1MET] + N=C(N)NC(=N)NCCc1ccccc1 [Phenformin] (partner 250 µM) was 0.731

Value of relative viability reported for the molecule COCC1(CO)C(=O)C2CCN1CC2 (stereo unspecified) [PRIMA-1MET] + CC(=O)c1c(C)c2cnc(Nc3ccc(N4CCNCC4)cn3)nc2n(C2CCCC2)c1=O [Palbociclib] (partner 0.5 µM) is 0.371

In plain terms, COCC1(CO)C(=O)C2CCN1CC2 (stereo unspecified) [PRIMA-1MET] + Nc1ncn([C@H]2C[C@H](O)[C@@H](CO)O2)c(=O)n1 [Decitabine] (partner 2 µM) has a documented relative viability of 0.32
